Where these numbers come from: ChEMBL document CHEMBL3507680

assayProtocol: Human HepG2 cell viability assay in 384 well format
Assay type: toxicity, cell-based
Design: dose 125 nL, time 70.5 hour; concentration not given beside the values
runParameters: HepG2 cells, read-out: Inhibition
What cytotoxicity at 70.5 h was measured for each of the following?
Answers are plain numbers, in %.

Recorded results for 5 compounds are shown here.
- CCN(CC)S(=O)(=O)N1CCCN(CC2CCCO2)CC1 (configuration not stated): 23.8
- c1csc(CN2C[C@@H](n3cccn3)[C@H]3OCCC[C@H]32)c1: -3.02
- Cc1cc(NC(=O)NCC(C)O)n(C)n1 (configuration not stated): 0.0779
- NC(=O)CCCNC(=O)CCc1cc(Br)cs1: -5.18
- CNc1cc(N2CCCC2CNCc2cccnc2C)ncn1 (configuration not stated): 4.98

// input: 2 compounds below; output: cytotoxicity at 70.5 h for each
1. O=C(c1ccc2[nH]cnc2c1)N1CCC(Oc2ccccn2)CC1
2. COCC(=O)N1CCCC(c2cc(C(F)F)n3ncnc3n2)C1 (configuration not stated)

Solution:
1.58
-2.53

// input: 5 compounds below; output: cytotoxicity at 70.5 h for each
1. CC(C1CCN(Cc2c(Cl)cncc2Cl)CC1)N1CCN(C)CC1 (configuration not stated)
2. Cc1cnn(C2CN(CC(=O)NCCc3ccccc3)C2)c1
3. FC(F)(F)c1ccc(-c2n[nH]c3c2CN(CC2CCOC2)CC3)cc1 (configuration not stated)
4. CN1CCN(C(=O)c2cc(C#N)cn2C)c2ccccc2C1
5. CCc1nccn1C1CCCN(C(=O)COCC(F)(F)F)C1 (configuration not stated)

Solution:
14.7
-16.2
-15.3
-2.54
-1.33

---

What cytotoxicity at 70.5 h was measured for each of the following?
assayProtocol: Human HepG2 cell viability assay in 384 well format
Assay type: toxicity, cell-based
Parameters: dose 125 nL, time 70.5 hour; concentration not given beside the values
runParameters: HepG2 cells, read-out: Inhibition
Numbers only, in %.

Recorded results for 2 compounds are shown here.
• O=C(Nc1cc(N2CCOCC2)ncn1)c1cnccn1 = -3.66
• CC(C)S(=O)(=O)N1C[C@H]2OC(=O)N(CCc3cccc(Cl)c3)[C@H]2C1 = -4.98

// input: 4 compounds below; output: cytotoxicity at 70.5 h for each
1. O=C(CCn1cc(Cl)cn1)Nc1nncs1
2. CCC(CC)n1nc(C)cc1NC(=O)C1CCOC1 (stereo unspecified)
3. CN(Cc1cnn(C)c1)C(=O)NC1CCN(Cc2ccccn2)CC1
4. CCNC(=O)c1cn(C(C)(C)C)c2ncccc12

Solution:
1. 15.8
2. -6.47
3. -11.3
4. -0.924

---

assayProtocol: Human HepG2 cell viability assay in 384 well format
Format: toxicity, cell-based
Design: dose 125 nL, time 70.5 hour; concentration not given beside the values
runParameters: HepG2 cells, read-out: Inhibition
experimentalReadout: cytotoxicity at 70.5 h (%)
One number for each entry, in %.

• Cc1cccc(CN2CC[C@@H]3[C@@H]2CCN3C(=O)Cc2ccsc2)n1 = -22.6
• Cc1cccc(NC(=O)C(C)Oc2ccc3c(c2)OCO3)n1 (stereo unspecified) = -3.5
• Cc1ncsc1-c1nc(CC2CCN(C)CC2)nn1Cc1ccccc1 = 8.01

// input: 3 molecules below; output: cytotoxicity at 70.5 h for each
1. CSCC1CCN(C(=O)Cn2ncc(N3CCCCC3)cc2=O)CC1
2. Cn1ncc2c(N3CCCC(C)(O)C3)nc(-c3cccnc3)nc21 (stereo unspecified)
3. Cc1ccc(NC(=O)CNc2cccc(C(N)=O)c2C)c(C)c1

Solution:
-16.3
9.87
33.2

---

assayProtocol: Human HepG2 cell viability assay in 384 well format
Format: toxicity, cell-based
Design: dose 125 nL, time 70.5 hour; concentration not given beside the values
runParameters: HepG2 cells, read-out: Inhibition
experimentalReadout: cytotoxicity at 70.5 h

• Cc1cc(N2CCC(c3ncc[nH]3)CC2)nc(N)n1 = -2.19%

// input: 5 molecules below; output: cytotoxicity at 70.5 h for each
1. O=C(O)[C@@]12CN(c3cnccn3)C[C@@H]1CN(C1CCOCC1)C2
2. COCCN1CCc2cc(C(=O)NC(C)C)c(NCC(C)C)nc2CC1
3. COCCN1CCCC2(CCN(c3ccsc3)C2=O)C1 (stereo unspecified)
4. CCCN1C(=O)[C@H]2CC[C@@H]1CN(S(=O)(=O)c1cccc(Cl)c1)C2
5. CC(C)Cc1noc(CN(C)c2cc(C(C)C)nc3ccnn23)n1

Solution:
-4.6%
-16.4%
-7.27%
-9.33%
5.41%

---

assayProtocol: Human HepG2 cell viability assay in 384 well format
Type: toxicity, cell-based
Set-up: dose 125 nL, time 70.5 hour; concentration not given beside the values
runParameters: HepG2 cells, read-out: Inhibition
experimentalReadout: cytotoxicity at 70.5 h (%)
Numbers only, in %.

Recorded results for 6 molecules are shown here.
* CC(=O)N1CCC(Cc2cccc(-c3c(C)noc3C)n2)C1 (stereo unspecified) | -7.61
* CCC(NS(=O)(=O)c1ccc(C(=O)NC2CC2)cc1)c1ccnn1C (stereo unspecified) | -7.49
* Cc1ccc(-c2cc(CNc3ncnc4c3CCNCC4)no2)cc1 | 1.89
* O=C(C1CC1)N1CCC(Nc2nc(O)cc(-c3ccsc3)n2)CC1 | -8.33
* Cc1ccc(N2C[C@H]3OCC[C@H]3[C@H](C(=O)NCc3ccco3)C2)nn1 | -7.31
* Cc1cccc(S(=O)(=O)N2CC[C@H]3[C@H]2CCN3c2ncccn2)c1 | -6.57

// input: 3 molecules below; output: cytotoxicity at 70.5 h for each
1. O=C(c1ccoc1)N1CCCC1C1CCN(Cc2ccccc2)CC1 (stereo unspecified)
2. O=C(NCCn1ccnc1)NCC(c1ccco1)N1CCCC1 (stereo unspecified)
3. COc1cccc(C2(CNC(C)c3nnc(C)o3)CCCC2)c1 (stereo unspecified)

Solution:
23.5
9.47
-13.9

// input: 2 molecules below; output: cytotoxicity at 70.5 h for each
1. Cn1cc(CN2CCC3(CC2)COC(COc2ccccn2)C3)cn1 (stereo unspecified)
2. COCC(=O)N1CCN(C(=O)c2cccs2)C[C@H]1C(=O)OC

Solution:
-14.7
1.41

---

assayProtocol: Human HepG2 cell viability assay in 384 well format
Format: toxicity, cell-based
Design: dose 125 nL, time 70.5 hour; concentration not given beside the values
runParameters: HepG2 cells, read-out: Inhibition
What cytotoxicity at 70.5 h was measured for each of the following?
Give bare numbers, in %.

Recorded results for 8 compounds are shown here.
• O=C(c1ccccc1)C1CCN(c2cncc(-n3cccn3)n2)CC1 = 1.36
• Cc1ccc(NC2CCN(C(=O)c3cc4c(s3)CCC4)CC2)nn1 = -13.9
• Cc1c(CCC(=O)N2CCCC2c2ccnc(N(C)C)c2)cnn1C (stereo unspecified) = -1.8
• CC(C)n1nc(Cn2cccn2)c2c1CN(C1CCOCC1)C2 = -4.7
• NC(=O)C1CCN(c2nccc(-c3c[nH]nc3C3CCCCC3)n2)CC1 = -4.42
• Cc1ccc2cnn(CCC(=O)NCc3c(C)nn(C)c3C)c2c1 = -6.87
• CCn1cc(CN(C)S(=O)(=O)c2ccc(NC(C)=O)cc2)cn1 = 26.5
• CCS(=O)(=O)N1CCO[C@H]2[C@H](OCC3CCCC3)CC[C@@H]21 = -13.9

// input: 3 compounds below; output: cytotoxicity at 70.5 h for each
1. O=C(N[C@@H]1CN(Cc2ccccn2)[C@@H]2COC[C@@H]21)C1CCC1
2. CCN(CC)c1ncc2c(c1C(=O)O)CCN(C1CCOC1)C2 (stereo unspecified)
3. Cc1cc(C)cc(C2(C(=O)NCC(C)CN3CCCC3=O)CC2)c1 (stereo unspecified)

Solution:
[-1.02, 3.75, -8.76]

---

assayProtocol: Human HepG2 cell viability assay in 384 well format
Assay type: toxicity, cell-based
Set-up: dose 125 nL, time 70.5 hour; concentration not given beside the values
runParameters: HepG2 cells, read-out: Inhibition
What cytotoxicity at 70.5 h was measured for each of the following?
Give bare numbers, in %.

Recorded results for 6 compounds are shown here.
• CCC1(CC)C(=O)NC(=O)N=C1Nc1ccc(C)cc1 = -10.3
• O=C(NC1CCCc2nc(N3CCCCC3)ncc21)C1CCCC1 (configuration not stated) = -4.53
• CN(Cc1cccnc1)[C@@H]1CN(C(=O)c2ccoc2)[C@@H]2CCCO[C@H]12 = -11.9
• CCN(CC)CCNC(=O)c1nn(CC)cc1Cl = 18.6
• N#Cc1ccc(SCCC(=O)Nc2ccc(CC(N)=O)cc2)cc1 = 6.57
• O=C(CNc1ccc(OC2CCOC2)cc1)NCc1cccs1 (configuration not stated) = -18.3

// input: 3 compounds below; output: cytotoxicity at 70.5 h for each
1. Cc1ccc(Cl)cc1NCc1nc2n(n1)CCCCC2
2. Cn1c2ncccc2c(=O)n1CC(=O)Nc1ccc(F)c(F)c1
3. CC(C)N(C)C(=O)c1ccc(CNc2ncc(C#N)cc2Cl)cc1

Solution:
7.47
-3.2
18.7

// input: 6 compounds below; output: cytotoxicity at 70.5 h for each
1. CC1CCc2nn(CCNC(=O)Cc3ccccc3F)c(=O)cc2C1 (configuration not stated)
2. CCCN1Cc2ccccc2CC1C(=O)NC (configuration not stated)
3. O=C(CN1CCCC1=O)N1CCC(O)(Cn2ccc3ccncc32)CC1
4. Cc1nnc2n1CCN(CC(=O)N1CCc3ccccc3C1)C2
5. CN(C)c1ncccc1CNC(=O)N1CCN(C)c2ccccc2C1
6. O=C(c1ccncc1)N1CCN(Cc2cccnc2)c2ncccc2C1

Solution:
1: 0.912; 2: -0.114; 3: -5.71; 4: 49.9; 5: -8.8; 6: -8.91

// input: 2 compounds below; output: cytotoxicity at 70.5 h for each
1. Cc1nc(-c2ccccc2)n(CC(=O)NCC(C)C)n1
2. CCn1cc(CNCc2ccc(C(=O)OC)cc2)c(C)n1

Solution:
-3.55
-0.911
